This collection of values is drawn from PubChem BioAssay (NCI).

System: HT29 colon
Assay Remarks: NCI tumour cell line growth inhibition, 48 h
I'd appreciate it if you could supply TGI values for the items below.

Any idea what TGI was measured for CO/N=C(\COc1ccc2c(c1)[nH]c1ccccc12)c1ccc(F)cc1 ?
> 100 µM

Any idea what TGI was measured for N#Cc1sc2c(c1OC(=O)c1ccccc1)c(=O)n(-c1ccccc1)c(=S)n2-c1ccccc1 ?
> 100 µM

Any idea what TGI was measured for CCC(=O)C12OC3OC(C)(C)OC3C1OC(C)(C)O2 (centres undefined) ?
> 100 µM

Any idea what TGI was measured for O=C(NC1CCCCC1NC(c1ccccc1)(c1ccccc1)c1ccccc1)C(=O)NC1CCCCC1NC(c1ccccc1)(c1ccccc1)c1ccccc1 (centres undefined) ?
> 100 µM

Any idea what TGI was measured for CN1C(=O)N(C)C2C1NN=c1s/c(=C\c3ccc(C(F)(F)F)cc3)c(=O)n12 (centres undefined) ?
> 100 µM

Any idea what TGI was measured for COc1cc2c(c(OC)c1)/C(=C/Sc1ccccc1)C(=O)N(C(C)(C)C)C2 ?
75.1 µM

Any idea what TGI was measured for CC(=O)CN(Cc1cc(C)c2c(c1)c1ccccc1n2Cc1ccccc1)S(=O)(=O)c1ccc(C)cc1 ?
> 100 µM

Any idea what TGI was measured for CCC(C=O)P1(=O)OC(C)(C)CN1C(C)(C)C (centres undefined) ?
> 100 µM

Any idea what TGI was measured for O=C(O)CN1CCN(CC(=O)O)CC(=O)[O][Hg][O]C(=O)C1 ?
34.1 µM

###

Tested on: RXF 393 renal
Assay Remarks: NCI tumour cell line growth inhibition, 48 h
Measurement Type: GI50

Any idea what GI50 was measured for O=C(/C=C\c1cccc([N+](=O)[O-])c1)/C=C/c1cccc([N+](=O)[O-])c1 ?
2550 nM

Any idea what GI50 was measured for O=C1c2cccnc2C(=O)c2c1c(C(=O)NCCCN1CCCCC1)c1ccccn21 ?
1280 nM

Any idea what GI50 was measured for O=C(O)CN1CCN(CC(=O)O)CC(=O)[O][Hg][O]C(=O)C1 ?
18100 nM

Any idea what GI50 was measured for COc1cc2nc(N3CCCC3)nc(NCCc3ccccc3)c2cc1OC ?
1280 nM

Any idea what GI50 was measured for CC(=O)/C=C/c1cn(C(=O)OC(C)(C)C)c2ccc(Br)cc12 ?
15600 nM

###

Tested on: KM12 colon
Assay Remarks: NCI tumour cell line growth inhibition, 48 h
I'd appreciate it if you could supply GI50 values for the items below.

Any idea what GI50 was measured for O=C(OCc1ccc2ccccc2n1)c1cn(C2CC2)c2cc(N3CCN(Cc4ccc5ccccc5n4)CC3)c(F)cc2c1=O ?
41.6 µM

Any idea what GI50 was measured for CO/N=C(/C)c1ccc(NC(=O)CSc2nnc(-c3ccncc3)n2-c2ccccc2)cc1 ?
> 100 µM

Any idea what GI50 was measured for CO[C@H]1CC(O[C@@H]2/C(C)=C/C[C@@H]3C[C@@H](C[C@]4(C=C[C@H](C)[C@@H](C5CCCCC5)O4)O3)OC(=O)[C@@H]3C=C(C)[C@@H](O)[C@H]4OC/C(=C\C=C\[C@@H]2C)[C@]43O)O[C@@H](C)C1O[C@H]1C[C@H](OC)[C@@H](O)[C@H](C)O1 (some centres not stated) ?
1.77 µM

Any idea what GI50 was measured for O=[N+]([O-])c1ccc(C=Cc2ccccc2)cc1.[C-]#[O+].[C-]#[O+].[C-]#[O+].[Cr] ?
13.7 µM

Any idea what GI50 was measured for CCCN(CCS(C)(=O)=O)Cc1ccc(-c2ccc3ncnc(Nc4ccc(OCc5cccc(F)c5)c(Cl)c4)c3c2)o1 ?
> 25 µM

Any idea what GI50 was measured for O=C(NN1C(=O)CSC12CCCCC2)c1[nH]c2ccc(Br)cc2c1-c1ccccc1 ?
16.9 µM

Any idea what GI50 was measured for O=C1c2c(c3c4ccccc4[nH]c3c3ccc4ccccc4c23)C(=O)N1CCN1CCNCC1 ?
1.5 µM

###

System: SF-295 CNS
Assay Remarks: NCI tumour cell line growth inhibition, 48 h
Measurement Type: TGI (µM)
# unit: µM | format: bare number

Any idea what TGI was measured for N#CC1(C(N)=O)C(c2ccc(Cl)cc2)CC(=O)CC1c1ccc(Cl)cc1 (centres undefined) ?
33.4

Any idea what TGI was measured for CCc1ccc2c(c1)N(CCO)C1=C(C(=O)OC1)C2c1cccc(Br)c1 (centres undefined) ?
13.2

Any idea what TGI was measured for OCCNCCN1CCN(CCCN2c3ccccc3Sc3ccc(C(F)(F)F)cc32)CC1 ?
34.9

Any idea what TGI was measured for COc1cc2c(cc1OCCCn1c(-c3ccccn3)nc3ccccc31)N=C[C@@H]1CCCN1C2=O ?
49.7

Any idea what TGI was measured for O=C1OCC2OC(=O)c3cc(O)c(O)c(O)c3-c3c(O)c(O)c(O)c4c3C(=O)OC(C2OC(=O)c2cc(O)c(O)c(O)c2-c2c1cc(O)c(O)c2O)C1OC(=O)c2c-4c(O)c(O)c(O)c2[C@@H]1C(O)C(O)C(O)C(O)CO (some centres undefined) ?
43.7

Any idea what TGI was measured for CCCCn1c(N)c(-c2nc3ccccc3o2)sc1=S ?
28.9

Any idea what TGI was measured for COc1cc2c(c(OC)c1)/C(=C/Sc1ccccc1)C(=O)N(C(C)(C)C)C2 ?
75.5

Any idea what TGI was measured for CCOc1ccccc1C(=O)N1CCN(c2cc(Cl)cc(Cl)c2)CC1 ?
0.779

Any idea what TGI was measured for N#CC(=C1C=CC(=NO)C=C1)c1ccc(Cl)cc1 ?
48

Any idea what TGI was measured for CC(=O)Oc1cc2c(cc1OC(C)=O)OCC(c1ccccc1)C2 (centres undefined) ?
49.8

###

I'd appreciate it if you could supply TGI values for the items below.
Test system: SNB-78 CNS
Assay Remarks: NCI tumour cell line growth inhibition, 48 h
Where a SMILES comes first, the peptide text is derived from it. The star is where a group is joined. Boc = CC(C)(C)OC(=O)*

Any idea what TGI was measured for CC(C)(C)OC(=O)NC(Cc1ccc(O)cc1)C(=O)N1CCCC1C(=O)O (stereo not drawn) (Boc-Tyr-Pro-OH; configuration not given here) ?
> 100 µM

Any idea what TGI was measured for COC(=O)c1onc(-c2c(OC)cc(OC)cc2OC)c1C(=O)OC ?
> 100 µM

Any idea what TGI was measured for Fc1ccc(C2SCc3nc4ccccc4n32)c(F)c1 (centres undefined) ?
> 100 µM

Any idea what TGI was measured for O=C(/C=C/c1ccccc1)CCN1CCOCC1 ?
47.3 µM

Any idea what TGI was measured for COc1ccc(-c2cc(Cc3cccs3)c(=O)[nH]n2)cc1 ?
> 100 µM

Any idea what TGI was measured for O=C(CCl)NNC1=Nc2ccc(Cl)cc2SC1 ?
4.51 µM

Any idea what TGI was measured for Cc1ccc2c(C3Cc4ccccc4N3C(=O)/C=C\C(=O)O)c(C)[nH]c2c1 (centres undefined) ?
45.3 µM

Any idea what TGI was measured for COc1cc(C(=O)C/C(CCC(=O)Nc2ccccc2[N+](=O)[O-])=N\NC(N)=O)ccc1O ?
> 100 µM

Any idea what TGI was measured for O=C(CSc1nnc(Cc2ccccc2)o1)Nc1ccccc1 ?
> 100 µM

Any idea what TGI was measured for O=C1CC(c2c[nH]c3ccccc23)C(=O)N1 (centres undefined) ?
> 100 µM

Any idea what TGI was measured for COc1nc(=O)n(COC(CO)CN2C(=O)c3ccccc3C2=O)cc1Cc1cccc(OCc2ccccc2)c1 (centres undefined) ?
> 100 µM

Any idea what TGI was measured for CCN(CC)CC1c2ccccc2C(CNc2ccccc2)N1C (centres undefined) ?
> 100 µM

Any idea what TGI was measured for COc1ccc2c(c1)C(=O)C1CC(=O)CCC21 (centres undefined) ?
> 100 µM

Any idea what TGI was measured for CC(=O)Oc1cc2c(cc1OC(C)=O)OCC(c1ccccc1)C2 (centres undefined) ?
111 µM

###

Test system: RXF 393 renal
Assay Remarks: NCI tumour cell line growth inhibition, 48 h
I'd appreciate it if you could supply TGI values for the items below.

Any idea what TGI was measured for CCCN(CCS(C)(=O)=O)Cc1ccc(-c2ccc3ncnc(Nc4ccc(OCc5cccc(F)c5)c(Cl)c4)c3c2)o1 ?
> 25 µM

Any idea what TGI was measured for COc1cc(N2C(=O)[C@H](O)C2c2ccc(SC)cc2)cc(OC)c1OC (stereo not given in full) ?
> 100 µM

Any idea what TGI was measured for C[N+](C)(C)CCc1ccccc1 ?
> 100 µM

Any idea what TGI was measured for CC(C)C[C@H](NC(=O)CNC(=O)c1cc(Cl)ccc1Cl)B1OC(=O)CC(CC(=O)O)(C(=O)O)O1 (stereo not given in full) ?
0.0438 µM

Any idea what TGI was measured for N#CC1C(=O)NC23CCCCC2C1c1ccccc1O3 (stereo not given) ?
> 100 µM

Any idea what TGI was measured for CCN(CC)CC1CCCCN1CC(=O)N1c2ccccc2C(=O)Nc2cccnc21 (stereo not given) ?
> 100 µM

Any idea what TGI was measured for OCCNCCN1CCN(CCCN2c3ccccc3Sc3ccc(C(F)(F)F)cc32)CC1 ?
47.5 µM

Any idea what TGI was measured for COC(=O)[C@@H]1CC(C(C[N+](=O)[O-])c2ccc(O[Si](C)(C)C(C)(C)C)cc2)C(=O)N1C(=O)OC(C)(C)C (stereo not given in full) ?
> 100 µM

Any idea what TGI was measured for O=C(NNCC(O)COc1ccccc1)c1ccccc1 (stereo not given) ?
> 100 µM

Any idea what TGI was measured for OCC1OC(n2cnc3c(N/N=C\c4ccccn4)ncnc32)C(O)C1O (stereo not given) ?
2.45 µM
